- Method Summary: Antioxidant activity after menadione in ALS patient lymphoblasts
- Type: cell-based, human
- Experimental Setup: human, LPS5 lymphoblast-derived cell line; LPS5, 50 μM menadione; read-out: cell viability after menadione insult
Readout Kind: viability at 3 h, 50 µM

Looking up CC1=CC(=O)c2ccccc2C1=O [menadione, 2-methyl-1,4-naphthoquinone, reference compound] , I see its viability at 3 h, 50 µM listed as ~80%

----------
Entries and their measured IC50 follow.
- System Name: hMAO-A (Homo sapiens)
- Sequence (P21397 whole entry): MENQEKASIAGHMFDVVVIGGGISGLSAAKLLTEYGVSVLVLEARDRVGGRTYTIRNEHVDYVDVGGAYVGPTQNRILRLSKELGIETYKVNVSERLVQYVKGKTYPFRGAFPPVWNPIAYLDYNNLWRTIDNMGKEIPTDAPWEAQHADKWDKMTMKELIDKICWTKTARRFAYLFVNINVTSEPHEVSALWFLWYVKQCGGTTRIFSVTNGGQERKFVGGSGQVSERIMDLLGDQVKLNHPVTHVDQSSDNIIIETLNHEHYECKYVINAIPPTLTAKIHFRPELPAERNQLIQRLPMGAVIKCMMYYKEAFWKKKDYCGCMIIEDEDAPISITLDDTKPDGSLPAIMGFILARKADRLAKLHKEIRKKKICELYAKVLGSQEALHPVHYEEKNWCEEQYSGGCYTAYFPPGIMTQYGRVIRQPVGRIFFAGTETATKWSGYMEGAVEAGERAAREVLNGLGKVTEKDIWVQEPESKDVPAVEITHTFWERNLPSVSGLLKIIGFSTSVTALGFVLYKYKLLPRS
- Method Summary: hMAO-A inhibitory activity (kynuramine, spectrophotometric)
- Assay type: biochemical
- Experimental Setup: Table S3, mean ± SD, highest concentration 10 µM; read-out: IC50 hMAO-A
# number only, unit µM dropped from output

The examples below pair each entry with its known result.
C#CCN(C)Cc1ccc2nc(N)sc2c1 : 2.73
C#CCNc1nc2ccc(N(CC#C)C(C)=O)cc2s1 : 6.88

Query compound follows.
Looking up Nc1nc2ccc(OC(F)(F)F)cc2s1 [Compound 1, riluzole, reference compound] , I see its IC50 listed as 8.71
